Source: paper PMC12864922

study target: TDP-43 (Homo sapiens, UniProt Q13148 1-414)
Sequence (Q13148 whole entry): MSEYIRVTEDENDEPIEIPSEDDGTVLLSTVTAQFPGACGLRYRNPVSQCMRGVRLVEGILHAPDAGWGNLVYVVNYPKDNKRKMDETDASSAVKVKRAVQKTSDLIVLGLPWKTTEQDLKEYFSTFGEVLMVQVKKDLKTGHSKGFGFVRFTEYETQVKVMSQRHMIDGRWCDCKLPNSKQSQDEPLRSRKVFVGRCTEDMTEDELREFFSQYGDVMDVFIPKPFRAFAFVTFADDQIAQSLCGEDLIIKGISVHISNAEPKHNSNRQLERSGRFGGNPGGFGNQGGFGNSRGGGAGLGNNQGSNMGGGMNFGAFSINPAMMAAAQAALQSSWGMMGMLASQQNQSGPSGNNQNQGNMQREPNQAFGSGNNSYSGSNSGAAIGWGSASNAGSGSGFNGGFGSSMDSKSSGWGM
test summary: RNA Bind-n-Seq with designed 260-mer pool; 25 mM Tris-HCl, 150 mM KCl, 3 mM MgCl2, BSA (printed 500 mg/mL), 20 units/mL SUPERase IN; pH not stated; 500 nM RNA pool, 1 h, 4 C; TDP-43 5, 50, 500 nM; high values mean tight binding
measurement setup: protein: recombinant; tags: SBP (GST cleaved off with PreScission; pGEX-GST-SBP)
Whole data set: some 9,900 sequences, median “r (bound/input frequency ratio)” near 0.7, cut for the highest 2% near 6.5. Shown is part of a subset that was picked to be rich in the highest values.
Item-by-item account of binding signal
observable: binding signal

[[record]]
binder = "ENSMUSG00000090935.743|Synj2bp (ssRNA) RNA: GGGAGUUCUACAGUCCGACGAUCGCUUCGAUAUCCGCAUGCUAAAUACUCCUGGGUAAAAUUUGUAUUAGAAUGGAAAAAAAAAUGAGGGUCAGAAAGGUGAGCUAACUUCAAGUUAGAUACUCCCCUCUAUUUUGGUCUCAAAUUUGUUUUAGUGUGUCCACAACAUGAAAACAUACAAAAACUAUAUUUUAAAAAUCAGUUUACUUUCAUCUUUUCUCUUUAGGCUUUCAAUAAAGACCAGAAGGACUGAUAGACAGCUAGAGAGGAUCGUGUAGGCAUCCAGAUUAGAAUGGAAGAAUCCCUCUUGCGGUCGCACUAGUGUGGAAUUCUCGGGUGUCAAGG"
result = "0.123 R (bound/input frequency ratio)"

[[record]]
binder = "ENSMUSG00000090935.544|Synj2bp (ssRNA) RNA: GGGAGUUCUACAGUCCGACGAUCGCUUCGAUAUCCGCAUGCUAUUGUUGAUCUAAAUAAAAAAUAUCAUUGGUAGAAGUUUUACUUUGGUUGAUAAGGAUUCUGAUAACAUUUGGGUCUCCUUAGGAAAGAAACACUUAACUAAAACAUUUAAGUUUUAGGCAAAUACUGUAAUAUUUCACUCUUAGUUAUAUGAAAACUAAAUGAGAUGUUGAGAAUCUAUAUAGAUUAUUCAAAUUUUAUGUUUCUUAUAGACUGACUCAAAUAUUCCUACCACCUUAAAAUUAUAUAUGAUGCACCUACCCUCUUGCGGUCGCACUAGUGUGGAAUUCUCGGGUGUCAAGG"
result = "0.0172 R (bound/input frequency ratio)"

